# Experimental Protocol: recombinant UMI read abundance after kanamycin selection (control-corrected) (log10(CPM+1)); higher = more efficient recombination; extreme values may be limits of the assay; sequences stand for … in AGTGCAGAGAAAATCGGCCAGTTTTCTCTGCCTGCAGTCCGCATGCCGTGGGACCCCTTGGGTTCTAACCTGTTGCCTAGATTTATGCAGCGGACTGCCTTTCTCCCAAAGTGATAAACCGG…AGGTTGGTTTCACT; site = the 11-nt donor;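 note: IS621 bridge recombinase in Escherichia coli cells against a fixed T5 target plasmid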
Observable: recombinant UMI read abundance (log10)
One number for each entry.

[[record]]
input_sequence = "TGGCCGGCATGGACCGGTTTTCCCGGTAATCCGTATTTGGG (site TGGCCGGCTAC)"
observable = "recombinant UMI read abundance (log10)"
experimental_result = 0.0282


Look up recombinant UMI read abundance (log10) for the entries below, preserving their order.
1. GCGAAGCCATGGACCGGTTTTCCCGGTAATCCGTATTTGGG (site GCGACGCCTCC)
2. TCATGAGCATGGACCGGTTTTCCCGGTAATCCGTATTTGGG (site TCATGAGCTCC)

Reply:
0.00657
0.0121

Give recombinant UMI read abundance (log10) for each of the items listed below.
1. TGAGCTACATGGACCGGTTTTCCCGGTAATCCGTATTTGTC (site GCGAACTCTCC)
2. ATCAGGCCATGGACCGGTTTTCCCGGTAATCCGTATTTGAC (site ATAAGGCCTGT)
3. AATGTAACATGGACCGGTTTTCCCGGTAATCCGTATTTGAT (site AATGTAACTAT)

Reply:
1: 0; 2: 0; 3: 2.15
